test: Selectivity index, ratio of IC50 for human WI-38 cells to IC50 for human HeLa cells; type: toxicity; conditions: WI-38 cells versus HeLa cells, read-out: Ratio IC50
assayEndpoint: selectivity ratio

O=C1CN(/N=C/c2ccc([N+](=O)[O-])o2)C(=O)N1Cc1ccccc1 1.68
O=C(CN1C(=O)CN(/N=C/c2ccc([N+](=O)[O-])o2)C1=O)c1ccc(Cl)cc1 4.04
O=C1CN(/N=C/c2ccc([N+](=O)[O-])o2)C(=O)N1 0.98
O=C1CN(/N=C/c2ccc([N+](=O)[O-])o2)C(=O)N1Cc1cn(-c2ccccc2)nn1 2.61
Cc1ccc(-n2cc(CN3C(=O)CN(/N=C/c4ccc([N+](=O)[O-])o4)C3=O)nn2)cc1 3.92
O=C(CN1C(=O)CN(/N=C/c2ccc([N+](=O)[O-])o2)C1=O)c1ccc(Br)cc1 2.47
O=C1CN(/N=C/c2ccc([N+](=O)[O-])o2)C(=O)N1Cc1ccc(Br)cc1 0.65

---

Reported MNTC at 72 h values follow for various compounds
assay: Cytotoxicity in human WI-38 cells assessed as safe dose incubated for 72 hrs by MTT assay; assay type: toxicity, cell-based; conditions: read-out: EC100

compound	unitAnnotation	MNTC at 72 h
O=C1CN(/N=C/c2ccc([N+](=O)[O-])o2)C(=O)N1Cc1ccccc1	nM	33
O=C1CN(/N=C/c2ccc([N+](=O)[O-])o2)C(=O)N1Cc1cn(-c2ccc([N+](=O)[O-])cc2)nn1	nM	26
Cc1ccc(C(=O)CN2C(=O)CN(/N=C/c3ccc([N+](=O)[O-])o3)C2=O)cc1	nM	33
O=C1CN(/N=C/c2ccc([N+](=O)[O-])o2)C(=O)N1Cc1ccc(Br)cc1	nM	32
COc1ccc(C(=O)CN2C(=O)CN(/N=C/c3ccc([N+](=O)[O-])o3)C2=O)cc1	nM	26
Cc1ccc(-n2cc(CN3C(=O)CN(/N=C/c4ccc([N+](=O)[O-])o4)C3=O)nn2)cc1	nM	27
O=C1CN(/N=C/c2ccc([N+](=O)[O-])o2)C(=O)N1Cc1cn(-c2ccc(Cl)cc2)nn1	nM	29
O=C1CN(/N=C/c2ccc([N+](=O)[O-])o2)C(=O)N1Cc1ccc([N+](=O)[O-])cc1	nM	9
O=C1CN(/N=C/c2ccc([N+](=O)[O-])o2)C(=O)N1Cc1cn(-c2ccc(S(=O)(=O)Nc3nccs3)cc2)nn1	nM	32
O=C1CN(/N=C/c2ccc([N+](=O)[O-])o2)C(=O)N1 [NITROFURANTOIN]	nM	27
O=c1[nH]cc(F)c(=O)[nH]1 [FLUOROURACIL]	nM	17
O=C(CN1C(=O)CN(/N=C/c2ccc([N+](=O)[O-])o2)C1=O)c1ccc(Br)cc1	nM	66

---

Reported Ratio IC50 values follow for various molecules
assay: Selectivity index, ratio of IC50 for human WI-38 cells to IC50 for human Caco-2 cells
assayEndpoint: Ratio IC50

molecule	reading
O=C1CN(/N=C/c2ccc([N+](=O)[O-])o2)C(=O)N1Cc1ccccc1	1.19
O=C1CN(/N=C/c2ccc([N+](=O)[O-])o2)C(=O)N1Cc1cn(-c2ccc(Cl)cc2)nn1	1.95
O=C1CN(/N=C/c2ccc([N+](=O)[O-])o2)C(=O)N1Cc1cn(-c2ccccc2)nn1	1.53
O=C(CN1C(=O)CN(/N=C/c2ccc([N+](=O)[O-])o2)C1=O)c1ccc(Br)cc1	3.05
O=C(CN1C(=O)CN(/N=C/c2ccc([N+](=O)[O-])o2)C1=O)c1ccc(Cl)cc1	1.87
C#CCN1C(=O)CN(/N=C/c2ccc([N+](=O)[O-])o2)C1=O	3.13
Cc1ccc(C(=O)CN2C(=O)CN(/N=C/c3ccc([N+](=O)[O-])o3)C2=O)cc1	1.28
O=C1CN(/N=C/c2ccc([N+](=O)[O-])o2)C(=O)N1Cc1cn(-c2ccc([N+](=O)[O-])cc2)nn1	1.32
Cc1ccc(-n2cc(CN3C(=O)CN(/N=C/c4ccc([N+](=O)[O-])o4)C3=O)nn2)cc1	2.05
O=C(CN1C(=O)CN(/N=C/c2ccc([N+](=O)[O-])o2)C1=O)c1ccccc1	3.08
O=c1[nH]cc(F)c(=O)[nH]1 [FLUOROURACIL]	0.76
NS(=O)(=O)c1ccc(-n2cc(CN3C(=O)CN(/N=C/c4ccc([N+](=O)[O-])o4)C3=O)nn2)cc1	3.14
O=C1CN(/N=C/c2ccc([N+](=O)[O-])o2)C(=O)N1Cc1cn(-c2ccc(S(=O)(=O)Nc3nccs3)cc2)nn1	1.01
O=C1CN(/N=C/c2ccc([N+](=O)[O-])o2)C(=O)N1Cc1ccc([N+](=O)[O-])cc1	1.75
COc1ccc(C(=O)CN2C(=O)CN(/N=C/c3ccc([N+](=O)[O-])o3)C2=O)cc1	1.37
O=C1CN(/N=C/c2ccc([N+](=O)[O-])o2)C(=O)N1 [NITROFURANTOIN]	1.41

---

molecular target: Tumour suppressor p53/oncoprotein Mdm2 (Homo sapiens, UniProt P04637+Q00987); assay: Inhibition of human recombinant MDM2/p53 interaction measured after 10 mins by ELISA method; assay type: protein assay
Sequence (P04637 whole entry): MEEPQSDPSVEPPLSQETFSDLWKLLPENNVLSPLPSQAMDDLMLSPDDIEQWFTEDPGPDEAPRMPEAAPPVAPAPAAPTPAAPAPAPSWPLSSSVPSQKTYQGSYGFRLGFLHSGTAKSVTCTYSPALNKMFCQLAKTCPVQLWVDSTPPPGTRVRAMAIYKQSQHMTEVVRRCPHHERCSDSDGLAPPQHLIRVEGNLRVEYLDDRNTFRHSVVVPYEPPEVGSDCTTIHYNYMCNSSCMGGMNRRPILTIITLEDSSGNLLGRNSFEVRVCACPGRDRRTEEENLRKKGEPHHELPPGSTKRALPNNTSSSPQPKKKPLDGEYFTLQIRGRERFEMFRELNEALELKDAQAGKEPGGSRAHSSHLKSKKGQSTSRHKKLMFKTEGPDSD
Sequence (Q00987 whole entry): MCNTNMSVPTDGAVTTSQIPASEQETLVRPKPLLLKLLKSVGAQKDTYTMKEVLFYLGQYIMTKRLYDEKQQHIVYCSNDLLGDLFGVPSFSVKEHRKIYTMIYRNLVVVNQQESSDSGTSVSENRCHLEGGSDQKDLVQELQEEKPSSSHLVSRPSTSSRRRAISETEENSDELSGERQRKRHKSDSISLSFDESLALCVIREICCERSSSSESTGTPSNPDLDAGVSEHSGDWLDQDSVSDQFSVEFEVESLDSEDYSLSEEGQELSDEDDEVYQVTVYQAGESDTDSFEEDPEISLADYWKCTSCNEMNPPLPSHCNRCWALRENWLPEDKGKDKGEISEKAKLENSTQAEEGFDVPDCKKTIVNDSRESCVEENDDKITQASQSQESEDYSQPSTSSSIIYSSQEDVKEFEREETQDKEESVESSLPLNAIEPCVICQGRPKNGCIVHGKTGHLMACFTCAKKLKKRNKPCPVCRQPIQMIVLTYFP
pIC50: −log10 of the molar value.
Reported pIC50 values follow for various molecules
assayEndpoint: pIC50

NS(=O)(=O)c1ccc(-n2cc(CN3C(=O)CN(/N=C/c4ccc([N+](=O)[O-])o4)C3=O)nn2)cc1 6.39
O=C1CN(/N=C/c2ccc([N+](=O)[O-])o2)C(=O)N1 5.80
O=C(CN1C(=O)CN(/N=C/c2ccc([N+](=O)[O-])o2)C1=O)c1ccc(Cl)cc1 6.17
C#CCN1C(=O)CN(/N=C/c2ccc([N+](=O)[O-])o2)C1=O 6.23

---

test: Selectivity index, ratio of IC50 for human WI-38 cells to IC50 for human MCF7 cells; assay type: toxicity; conditions: WI-38 cells versus MCF7 cells, read-out: Ratio IC50
Reported selectivity ratio values follow for various compounds
assayEndpoint: selectivity ratio

O=C(CN1C(=O)CN(/N=C/c2ccc([N+](=O)[O-])o2)C1=O)c1ccc(Br)cc1 2.31
NS(=O)(=O)c1ccc(-n2cc(CN3C(=O)CN(/N=C/c4ccc([N+](=O)[O-])o4)C3=O)nn2)cc1 3.36
O=C1CN(/N=C/c2ccc([N+](=O)[O-])o2)C(=O)N1Cc1cn(-c2ccc(Cl)cc2)nn1 1.77
Cc1ccc(C(=O)CN2C(=O)CN(/N=C/c3ccc([N+](=O)[O-])o3)C2=O)cc1 0.706

---

Reported Ratio values follow for various molecules
tested on: MCF7; test: Induction of apoptosis in human MCF7 cells assessed as ratio of gene expression activity in pro apoptotic Bax to anti apoptotic Bcl-2; type: functional
assayEndpoint: Ratio

O=c1[nH]cc(F)c(=O)[nH]1 1.246
C#CCN1C(=O)CN(/N=C/c2ccc([N+](=O)[O-])o2)C1=O 4.453
O=C(CN1C(=O)CN(/N=C/c2ccc([N+](=O)[O-])o2)C1=O)c1ccc(Cl)cc1 5.104
NS(=O)(=O)c1ccc(-n2cc(CN3C(=O)CN(/N=C/c4ccc([N+](=O)[O-])o4)C3=O)nn2)cc1 10.4
O=C1CN(/N=C/c2ccc([N+](=O)[O-])o2)C(=O)N1 0.958

---

assay: Cytotoxicity in human WI-38 cells assessed as reduction in cell viability incubated for 72 hrs by MTT assay; assay type: toxicity, cell-based
Reported IC50 at 72 h values follow for various compounds
assayEndpoint: IC50 at 72 h (nM)

O=C1CN(/N=C/c2ccc([N+](=O)[O-])o2)C(=O)N1Cc1ccc(Br)cc1 119
O=C1CN(/N=C/c2ccc([N+](=O)[O-])o2)C(=O)N1Cc1cn(-c2ccccc2)nn1 220
Cc1ccc(C(=O)CN2C(=O)CN(/N=C/c3ccc([N+](=O)[O-])o3)C2=O)cc1 180
O=C1CN(/N=C/c2ccc([N+](=O)[O-])o2)C(=O)N1Cc1cn(-c2ccc(S(=O)(=O)Nc3nccs3)cc2)nn1 87.9

---

experiment: Selectivity index, ratio of IC50 for human WI-38 cells to IC50 for human HeLa cells; format: toxicity; conditions: WI-38 cells versus HeLa cells, read-out: Ratio IC50

compound	selectivity ratio
O=C1CN(/N=C/c2ccc([N+](=O)[O-])o2)C(=O)N1Cc1cn(-c2ccc(S(=O)(=O)Nc3nccs3)cc2)nn1	0.813
C#CCN1C(=O)CN(/N=C/c2ccc([N+](=O)[O-])o2)C1=O	1.16
O=C1CN(/N=C/c2ccc([N+](=O)[O-])o2)C(=O)N1Cc1cn(-c2ccc([N+](=O)[O-])cc2)nn1	1.62
COc1ccc(C(=O)CN2C(=O)CN(/N=C/c3ccc([N+](=O)[O-])o3)C2=O)cc1	1.61
O=c1[nH]cc(F)c(=O)[nH]1 [FLUOROURACIL]	1.02
O=C1CN(/N=C/c2ccc([N+](=O)[O-])o2)C(=O)N1Cc1cn(-c2ccc(Cl)cc2)nn1	1.92
NS(=O)(=O)c1ccc(-n2cc(CN3C(=O)CN(/N=C/c4ccc([N+](=O)[O-])o4)C3=O)nn2)cc1	3.08
Cc1ccc(C(=O)CN2C(=O)CN(/N=C/c3ccc([N+](=O)[O-])o3)C2=O)cc1	1.58
O=C1CN(/N=C/c2ccc([N+](=O)[O-])o2)C(=O)N1Cc1ccc([N+](=O)[O-])cc1	1.51
